In what follows, each item is paired with its EC50 for fMet-Leu-Phe receptor (Homo sapiens).

| MOLECULE | EC50 [nM] |
| --- | --- |
| COc1cc(F)c(-n2cc(C3CC(N)C3)nc2NC(=O)c2ccc(OC(F)F)cc2)c(F)c1 (configuration not stated) [WO2022076764, Example 81] | 4 |
| COc1ccc(-n2cc(-c3ccc4c(c3)CCO4)nc2NC(=O)c2ccc(OC(F)F)cc2)cc1 [WO2022076764, Example 19] | 28 |
| CCOC(=O)c1cn(-c2c(F)cc(OC)cc2F)c(NC(=O)c2ccc(OC(F)F)cc2)n1 [WO2022076764, Example 38] | 15 |
| COc1ccc(-c2cn(-c3c(F)cc(OC)cc3F)c(NC(=O)c3ccc(OC(F)F)cc3)n2)cc1 [WO2022076764, Example 14] | 39 |
| COc1cc(F)c(-n2cc(C(=O)NCC3CCC(O)CC3)nc2NC(=O)c2ccc(OC(F)F)cc2)c(F)c1 (configuration not stated) [WO2022076764, Example 49] | 90 |
| COc1cc(F)c(-n2cc(-c3ccc(C)cc3)nc2NC(=O)c2ccc(OC(F)F)cc2)c(F)c1 [WO2022076764, Example 15] | 23 |
| COc1cc(F)c(-n2cc(Cc3nnc(C)o3)nc2NC(=O)c2ccc(OC(F)F)cc2)c(F)c1 [WO2022076764, Example 73] | 23 |

----------
Attribute: EC50
- TARGET ENTITY: UniProt:P25090
- Sequence (P25090 whole entry): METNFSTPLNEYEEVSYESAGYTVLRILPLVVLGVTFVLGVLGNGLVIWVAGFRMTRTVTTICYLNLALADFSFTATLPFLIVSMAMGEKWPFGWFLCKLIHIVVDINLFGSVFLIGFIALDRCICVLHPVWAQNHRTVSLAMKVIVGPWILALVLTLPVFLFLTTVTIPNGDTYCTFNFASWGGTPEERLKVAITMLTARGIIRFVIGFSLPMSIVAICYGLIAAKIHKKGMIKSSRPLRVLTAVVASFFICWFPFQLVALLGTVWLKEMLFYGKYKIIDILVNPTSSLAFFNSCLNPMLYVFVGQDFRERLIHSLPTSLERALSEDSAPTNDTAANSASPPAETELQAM

| MOLECULE | EC50 (nM) |
| --- | --- |
| COc1cc(F)c(-n2cc(-c3cccc(C#N)c3)nc2NC(=O)c2ccc(OC(F)F)cc2)c(F)c1 | 46 |
| COc1cc(F)c(-n2cc(C3CC(N)C3)nc2NC(=O)c2ccc(OC(F)F)cc2)c(F)c1 (centres undefined) | 5400 |
| COc1cc(F)c(-n2cc(-c3ccc(F)c(F)c3)nc2NC(=O)c2ccc(OC(F)F)cc2)c(F)c1 | 320 |
| CCNC(=O)N1CCC(c2cn(-c3c(F)cc(OC)cc3F)c(NC(=O)c3ccc(OC(F)F)cc3)n2)CC1 | 540 |
| COc1cc(F)c(-n2c(NC(=O)c3ccc(OC(F)F)cc3)nc(-c3ccc(Cl)cc3)c2C)c(F)c1 | 550 |
| COc1cc(F)c(-n2cc(Cc3nnc(C)o3)nc2NC(=O)c2ccc(OC(F)F)cc2)c(F)c1 | 300 |
| COc1cc(F)c(-n2cc(C3CCC(O)CC3)nc2NC(=O)c2ccc(OC(F)F)cc2)c(F)c1 (centres undefined) | 240 |
| COc1cc(F)c(-n2cc(C(F)(F)F)nc2NC(=O)c2ccc(OC(F)F)cc2)c(F)c1 | 40 |
| COc1cc(F)c(-n2cc(C(=O)N3CCC(CO)C3)nc2NC(=O)c2ccc(OC(F)F)cc2)c(F)c1 (centres undefined) | 2200 |
| COc1cc(F)c(-n2cc(C(=O)N3CCC(CO)CC3)nc2NC(=O)c2ccc(OC(F)F)cc2)c(F)c1 | 2990 |
| COc1cc(F)c(-n2cc(-c3ccc(Cl)c(Cl)c3)nc2NC(=O)c2ccc(OC(F)F)cc2)c(F)c1 | 400 |
| COc1cc(F)c(-n2cc(Cc3ccccc3)nc2NC(=O)c2ccc(OC(F)F)cc2)c(F)c1 | 1300 |
| COc1cc(F)c(-n2c(NC(=O)c3ccc(OC(F)F)cc3)nc(-c3ccccc3)c2C)c(F)c1 | 230 |
| COc1cc(F)c(-n2cc(-c3ccc4ccccc4c3)nc2NC(=O)c2ccc(OC(F)F)cc2)c(F)c1 | 460 |

----------
In what follows, each item is paired with its EC50 for N-formyl peptide receptor 2 (Homo sapiens, UniProt P25090).

| SMILES STR | EC50 / nM |
| --- | --- |
| CCOC(=O)c1cc(-c2cn(-c3ccc(OC)cc3)c(NC(=O)c3ccc(OC(F)F)cc3)n2)on1 | 32 |
| COc1cc(F)c(-n2cc(C(C)C)nc2NC(=O)c2ccc(OC(F)F)cc2)c(F)c1 | 970 |
| COc1cc(F)c(-n2cc(C3CCN(C(=O)CCO)CC3)nc2NC(=O)c2ccc(OC(F)F)cc2)c(F)c1 | 110 |
| COc1ccc(-n2cc(-c3ccc4c(c3)CCO4)nc2NC(=O)c2ccc(OC(F)F)cc2)cc1 | 93 |

----------
- TARGET ENTITY: N-formyl peptide receptor 2 (Homo sapiens, UniProt P25090)
pEC50: −log10 of the molar value.
TRUE means recorded pEC50 is 7 or above; FALSE means it is below 7.

| MOLECULE | ASSIGNED CATEGORY |
| --- | --- |
| COc1cc(F)c(-n2cc(C(=O)NCc3ccncc3)nc2NC(=O)c2ccc(OC(F)F)cc2)c(F)c1 | FALSE |
| COc1cc(F)c(-n2cc(C(F)(F)C(F)(F)F)nc2NC(=O)c2ccc(OC(F)F)cc2)c(F)c1 | TRUE |
| COc1ccc(-n2cc(-c3nc4ccccc4s3)nc2NC(=O)c2ccc(OC(F)F)cc2)cc1 | TRUE |
| COc1cc(F)c(-n2cc(CC(C)C)nc2NC(=O)c2ccc(OC(F)F)cc2)c(F)c1 | FALSE |
| COc1cc(F)c(-n2cc(C3CC(NS(C)(=O)=O)C3)nc2NC(=O)c2ccc(OC(F)F)cc2)c(F)c1 (stereo not drawn) | FALSE |
| COc1cc(F)c(-n2cc(-c3ccccc3)nc2NC(=O)c2ccc(OC(F)F)cc2)c(F)c1 | FALSE |

----------
Attribute: pEC50
- TARGET ENTITY: N-formyl peptide receptor 2 (Homo sapiens, UniProt P25090)
- Sequence (P25090 whole entry): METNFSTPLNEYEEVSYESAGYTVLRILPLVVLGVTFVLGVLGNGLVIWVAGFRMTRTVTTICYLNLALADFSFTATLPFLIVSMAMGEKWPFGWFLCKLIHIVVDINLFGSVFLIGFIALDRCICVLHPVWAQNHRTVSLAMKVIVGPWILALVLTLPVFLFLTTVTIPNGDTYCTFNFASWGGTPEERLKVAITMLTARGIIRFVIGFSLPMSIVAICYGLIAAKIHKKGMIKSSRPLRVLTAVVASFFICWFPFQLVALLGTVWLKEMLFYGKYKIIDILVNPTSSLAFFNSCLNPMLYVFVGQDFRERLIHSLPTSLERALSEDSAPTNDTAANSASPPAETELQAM
pEC50: −log10 of the molar value.
MEASUREMENT TYPE: pEC50

| SMILES STR | TARGET ENTITY | RELATION SIGN | NUMERIC VALUE |
| --- | --- | --- | --- |
| COc1cccc(-c2cn(-c3c(F)cc(OC)cc3F)c(NC(=O)c3ccc(OC(F)F)cc3)n2)c1 | N-formyl peptide receptor 2 (Homo sapiens, UniProt P25090) | = | 7.06 |
| COc1cc(F)c(-n2cc(C(=O)NCc3cccnc3)nc2NC(=O)c2ccc(OC(F)F)cc2)c(F)c1 | N-formyl peptide receptor 2 (Homo sapiens, UniProt P25090) | = | 6.96 |
| COc1ccc(-n2cc(C34CC5CC(CC(C5)C3)C4)nc2NC(=O)c2ccc(OC(F)F)cc2)cc1 | N-formyl peptide receptor 2 (Homo sapiens, UniProt P25090) | < | 5.00 |
| COc1cc(F)c(-n2cc(-c3ccc(Cl)c(C)c3)nc2NC(=O)c2ccc(OC(F)F)cc2)c(F)c1 | N-formyl peptide receptor 2 (Homo sapiens, UniProt P25090) | = | 6.85 |
| CCOC(=O)Cc1cn(-c2c(F)cc(OC)cc2F)c(NC(=O)c2ccc(OC(F)F)cc2)n1 | N-formyl peptide receptor 2 (Homo sapiens, UniProt P25090) | = | 6.33 |
| COc1cc(F)c(-n2cc(C3CCNCC3)nc2NC(=O)c2ccc(OC(F)F)cc2)c(F)c1 | N-formyl peptide receptor 2 (Homo sapiens, UniProt P25090) | = | 6.15 |
| COc1cc(F)c(-n2cc(C(=O)Nc3cn[nH]c3)nc2NC(=O)c2ccc(OC(F)F)cc2)c(F)c1 | N-formyl peptide receptor 2 (Homo sapiens, UniProt P25090) | = | 6.08 |
